Attribute: pIC50
System: ARH77 cells
Assay: Cell death in ARH77 cells, propidium iodide flow cytometry
Assay type: cell-based
Settings: Homo sapiens, ARH-77; 20 hours, PI uptake; mean of two determinations ±SD; read-out: IC50 for induction of ARH77 cell death
Method: A flow cytometry method was used to determine the ability of SFZ analogues to induce cell death in ARH77 cells. The proportion of cells that had lost plasma membrane integrity was used as a measure of cell viability. […] Cells were analysed using a FACSCalibur (BD Biosciences, Oxford, UK) using the FL2 channel. […] The proportion of cells with intense fluorescence as a proportion of total cells was calculated. […]
pIC50: −log10 of the molar value.

Molecule	Study System	pIC50
O=C(O)c1cc(/N=N/c2ccc(S(=O)(=O)NCc3ccc(C(F)(F)F)cc3)cc2)ccc1O [Compound 3f]	ARH77 cells	3.39
COc1ccc(CNS(=O)(=O)c2ccc(/N=N/c3ccc(O)c(C(=O)O)c3)cc2)cc1 [Compound 3a]	ARH77 cells	3.30
O=C(O)c1cc(/N=N/c2ccc(S(=O)(=O)Nc3ccccn3)cc2)ccc1O [SFZ, Sulfasalazine, reference compound]	ARH77 cells	2.96
Cc1cc(/N=N/c2ccc(S(=O)(=O)NCc3ccc(C(F)(F)F)cc3)cc2)cc(C(=O)O)c1O [Compound 3e]	ARH77 cells	3.71

---

system: NF-kB; assay: NF-kB luciferase reporter activity in LPS-stimulated U937-kBluc cells; type: cell-based, human; conditions: Homo sapiens; U937-kBluc cells, LPS 0.3 μg/ml, 6 hours; mean of duplicate determinations ±SD; read-out: IC50 for inhibition of LPS-induced NF-kB activity
pIC50: −log10 of the molar value.
Reported pIC50 values are given for each entry in this list.

Compound	Comparison Symbol	pIC50
Cc1cc(/N=N/c2ccc(S(=O)(=O)Nc3ccccn3)cc2)cc(C(=O)O)c1O [Compound 3c]	=	2.96
Nc1ccc(O)c(C(=O)O)c1 [Compound 5-ASA, 5-amino salicylic acid, reference compound]	<	2.70
COc1ccc(CNS(=O)(=O)c2ccc(/N=N/c3ccc(O)cc3)cc2)cc1 [Compound 3b]	<	2.70
CNS(=O)(=O)c1ccc(/N=N/c2ccc(O)c(C(=O)O)c2)cc1 [Compound 3d]	=	2.91
Cc1cc(/N=N/c2ccc(S(=O)(=O)NCc3ccc(C(F)(F)F)cc3)cc2)cc(C(=O)O)c1O [Compound 3e]	=	3.90
Nc1ccc(S(=O)(=O)Nc2ccccn2)cc1 [SPY, sulfapyridine, reference compound]	<	2.70
O=C(O)c1cc(/N=N/c2ccc(S(=O)(=O)NCc3ccc(C(F)(F)F)cc3)cc2)ccc1O [Compound 3f]	=	4.05
COc1ccc(CNS(=O)(=O)c2ccc(/N=N/c3ccc(O)c(C(=O)O)c3)cc2)cc1 [Compound 3a]	=	3.82
O=C(O)c1cc(/N=N/c2ccc(S(=O)(=O)Nc3ccccn3)cc2)ccc1O [SFZ, Sulfasalazine, reference compound]	=	2.92

Where do the numbers come from? From patent US20080090788A1.
